Listed next: entries and their corresponding MIC80.
test system: Candida albicans; assay: Antifungal activity against Candida albicans Y0109 by micro-broth dilution method; format: functional
Assay metric: MIC80 (µg/mL)

[
  {
    "Compound": "Cc1ccc(C(=O)Nc2ccc(-n3cnn(CC(O)(Cn4cncn4)c4ccc(F)cc4F)c3=O)cc2)cc1 (single isomer, unassigned)",
    "Endpoint result": 0.0625
  },
  {
    "Compound": "O=C(Nc1ccc(-n2cnn(CC(O)(Cn3cncn3)c3ccc(F)cc3F)c2=O)cc1)c1cccc(Cl)c1 (single isomer, unassigned)",
    "Endpoint result": 0.00024
  },
  {
    "Compound": "O=C(Nc1ccc(-n2cnn(CC(O)(Cn3cncn3)c3ccc(F)cc3F)c2=O)cc1)c1ccc(OC(F)(F)F)cc1 (single isomer, unassigned)",
    "Endpoint result": 1
  },
  {
    "Compound": "O=C(/C=C/c1ccc(Cl)c(Cl)c1)Nc1ccc(-n2cnn(CC(O)(Cn3cncn3)c3ccc(F)cc3F)c2=O)cc1 (single isomer, unassigned)",
    "Endpoint result": 4
  },
  {
    "Compound": "N#Cc1cccc(/C=C/C(=O)Nc2ccc(-n3cnn(CC(O)(Cn4cncn4)c4ccc(F)cc4F)c3=O)cc2)c1 (single isomer, unassigned)",
    "Endpoint result": 16
  },
  {
    "Compound": "O=C(Nc1ccc(-n2cnn(CC(O)(Cn3cncn3)c3ccc(F)cc3F)c2=O)cc1)c1ccc(Cl)cc1 (single isomer, unassigned)",
    "Endpoint result": 1
  }
]

---

tested on: Candida albicans; experiment: Antifungal activity against Candida albicans Y0109 by micro-broth dilution method; type: functional
Cut-off 1 µg/mL on MIC80: below means met, at or above means not met.

[
  {
    "Compound": "COc1ccc(/C=C/C(=O)Nc2ccc(-n3cnn(CC(O)(Cn4cncn4)c4ccc(F)cc4F)c3=O)cc2)cc1 (single isomer, unassigned)",
    "Class name": "not met"
  },
  {
    "Compound": "OC(Cn1cncn1)(Cn1cncn1)c1ccc(F)cc1F",
    "Class name": "met"
  },
  {
    "Compound": "Cc1ccc(/C=C/C(=O)Nc2ccc(-n3cnn(CC(O)(Cn4cncn4)c4ccc(F)cc4F)c3=O)cc2)cc1 (single isomer, unassigned)",
    "Class name": "not met"
  },
  {
    "Compound": "Cc1cccc(/C=C/C(=O)Nc2ccc(-n3cnn(CC(O)(Cn4cncn4)c4ccc(F)cc4F)c3=O)cc2)c1C (single isomer, unassigned)",
    "Class name": "not met"
  },
  {
    "Compound": "O=C(/C=C/c1cccc(F)c1)Nc1ccc(-n2cnn(CC(O)(Cn3cncn3)c3ccc(F)cc3F)c2=O)cc1 (single isomer, unassigned)",
    "Class name": "not met"
  },
  {
    "Compound": "O=C(/C=C/c1ccc(F)cc1)Nc1ccc(-n2cnn(CC(O)(Cn3cncn3)c3ccc(F)cc3F)c2=O)cc1 (single isomer, unassigned)",
    "Class name": "not met"
  },
  {
    "Compound": "O=C(/C=C/c1ccc([N+](=O)[O-])cc1)Nc1ccc(-n2cnn(CC(O)(Cn3cncn3)c3ccc(F)cc3F)c2=O)cc1 (single isomer, unassigned)",
    "Class name": "not met"
  },
  {
    "Compound": "O=C(/C=C/c1ccc(Br)cc1)Nc1ccc(-n2cnn(CC(O)(Cn3cncn3)c3ccc(F)cc3F)c2=O)cc1 (single isomer, unassigned)",
    "Class name": "not met"
  },
  {
    "Compound": "O=C(Nc1ccc(-n2cnn(CC(O)(Cn3cncn3)c3ccc(F)cc3F)c2=O)cc1)c1ccccc1F (single isomer, unassigned)",
    "Class name": "not met"
  },
  {
    "Compound": "O=C(/C=C/c1cccc([N+](=O)[O-])c1)Nc1ccc(-n2cnn(CC(O)(Cn3cncn3)c3ccc(F)cc3F)c2=O)cc1 (single isomer, unassigned)",
    "Class name": "met"
  }
]

These entries and their values trace back to ChEMBL document CHEMBL1806394.
